assayedTarget: S. pneumoniae Topoisomerase IV ATPase (ParE) (Streptococcus pneumoniae serotype 4, UniProt Q59961)
Sequence (Q59961 whole entry): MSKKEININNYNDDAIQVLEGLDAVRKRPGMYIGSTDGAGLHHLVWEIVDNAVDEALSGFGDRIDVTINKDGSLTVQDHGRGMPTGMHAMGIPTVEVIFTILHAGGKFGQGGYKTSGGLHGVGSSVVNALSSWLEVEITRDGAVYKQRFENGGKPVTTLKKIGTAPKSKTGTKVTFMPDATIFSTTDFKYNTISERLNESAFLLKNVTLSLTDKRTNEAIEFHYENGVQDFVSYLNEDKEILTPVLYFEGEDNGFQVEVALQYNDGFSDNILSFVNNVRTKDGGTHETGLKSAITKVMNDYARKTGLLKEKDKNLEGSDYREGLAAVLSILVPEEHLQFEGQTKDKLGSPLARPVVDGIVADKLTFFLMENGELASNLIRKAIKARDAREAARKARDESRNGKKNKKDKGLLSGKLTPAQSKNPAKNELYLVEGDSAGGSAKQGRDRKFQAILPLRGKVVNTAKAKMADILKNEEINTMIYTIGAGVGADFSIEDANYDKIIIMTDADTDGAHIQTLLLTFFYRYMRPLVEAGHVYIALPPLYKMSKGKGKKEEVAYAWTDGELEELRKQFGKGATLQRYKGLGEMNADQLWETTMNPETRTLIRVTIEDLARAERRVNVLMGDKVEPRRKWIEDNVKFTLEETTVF
procedureSummary: S. pneumoniae Topoisomerase IV ATPase inhibition
Type: biochemical
recordedConditions: values marked * are an average of two or more data points, read-out: % Inh (13 μM) of S. pneumoniae Topoisomerase IV ATPase
attributeMeasured: inhibition at 13 µM (%)
Numbers only here, please. The scale is %.

Solved entries (count: 3):
moleculeSmiles: Cc1cc(C(F)(F)F)nn1-c1nc(Nc2ccc(F)c(Cl)c2)ncc1-c1cc(C(=O)O)c(=O)n(CCN2CCOCC2)c1
valueReported: 99

moleculeSmiles: COc1ncc(-c2cnc(Nc3cccc(C(N)=O)c3)nc2-n2ccc(C(F)(F)F)n2)cc1C(=O)O
valueReported: 93

moleculeSmiles: COCCNc1ncc(-c2cnc(Nc3ccc(F)c(Cl)c3)nc2-n2ccc(C(F)(F)F)n2)cc1C(=O)O
valueReported: 100

From here, focus on the item given below.
Request: Give its inhibition at 13 µM value. Item: COc1cc(Nc2ncc(-c3c[nH]c(=O)c(C(=O)O)c3)c(-n3nc(C(F)(F)F)cc3C)n2)cc(OC)c1
Response: 100

###

assayedTarget: S. pneumoniae Topoisomerase IV ATPase (ParE) (Streptococcus pneumoniae serotype 4)
procedureSummary: S. pneumoniae Topoisomerase IV ATPase inhibition
Type: biochemical
recordedConditions: values marked * are an average of two or more data points, read-out: % Inh (13 μM) of S. pneumoniae Topoisomerase IV ATPase
attributeMeasured: inhibition at 13 µM

moleculeSmiles: O=C(O)/C=C/c1cccc(-c2cnc(Nc3ccc(F)c(F)c3)nc2N2CCOCC2)c1
inhibition at 13 µM: 69%
--
moleculeSmiles: CCOC(=O)c1cncc(-c2cnc(Nc3ccc(F)c(Cl)c3)nc2NCCc2cccnc2)c1
inhibition at 13 µM: 73.5%
--
moleculeSmiles: COCCn1cc(-c2cnc(Nc3cc(OC)cc(OC)c3)nc2-n2nc(C(F)(F)F)cc2C)cc(C(=O)NS(C)(=O)=O)c1=O
inhibition at 13 µM: 81%
--
moleculeSmiles: CCn1cc(-c2cnc(Nc3ccc(F)c(Cl)c3)nc2-n2ccc(C(F)(F)F)n2)cc(C(=O)O)c1=O
inhibition at 13 µM: 100%
--
moleculeSmiles: CNC(=O)/C=C/c1cccc(-c2cnc(Nc3cc(OC)cc(C(F)(F)F)c3)nc2NCCc2ccncc2)c1
inhibition at 13 µM: 80.9%
--
moleculeSmiles: COc1ccc(-c2cnc(Nc3ccc(F)c(Cl)c3)nc2NCCCN(C)C)cn1
inhibition at 13 µM: 96.6%
--
moleculeSmiles: CN(C)CCCNc1nc(Nc2ccc(F)c(Cl)c2)ncc1-c1cccc(NS(C)(=O)=O)c1
inhibition at 13 µM: 56.8%

From here, focus on the item given below.
Request: Give its inhibition at 13 µM value. Item: CC(C)OCCNc1nc(Nc2ccc(F)c(Cl)c2)ncc1-c1cncc(C(=O)O)c1
Response: 73.6%

###

Entries annotated with measured inhibition at 13 µM
assayedTarget: S. pneumoniae Topoisomerase IV ATPase (ParE) (Streptococcus pneumoniae serotype 4, UniProt Q59961)
procedureSummary: S. pneumoniae Topoisomerase IV ATPase inhibition
Assay type: biochemical
recordedConditions: values marked * are an average of two or more data points, read-out: % Inh (13 μM) of S. pneumoniae Topoisomerase IV ATPase

Request: Give its inhibition at 13 µM value. Item: O=C(c1cccc(-c2cnc(Nc3ccc(F)c(Cl)c3)nc2-n2ccc(C(F)(F)F)n2)c1)N1CCOCC1 [Example 1151]
Response: 100%

Request: Give its inhibition at 13 µM value. Item: COc1cc(C)cc(Nc2ncc(-c3cncc(C(=O)O)c3)c(-n3ccc(C(F)(F)F)n3)n2)c1 [Example 776]
Response: 100%

Request: Give its inhibition at 13 µM value. Item: CC(C)Oc1ncc(-c2cnc(Nc3ccc(F)c(Cl)c3)nc2-n2ccc(C(F)(F)F)n2)cc1C(=O)O [Example 959]
Response: 93%

Request: Give its inhibition at 13 µM value. Item: COc1ncc(-c2cnc(Nc3cc(C)cc(C)c3)nc2-n2ccc(C(F)(F)F)n2)cc1C(=O)O [Example 648]
Response: 100%

Request: Give its inhibition at 13 µM value. Item: COCC(COC)Oc1ncc(-c2cnc(Nc3ccc(F)c(Cl)c3)nc2-n2ccc(C(F)(F)F)n2)cc1C(=O)O [Example 869]
Response: 93%

Request: Give its inhibition at 13 µM value. Item: COc1cc(Nc2ncc(-c3cnc(OC)nc3)c(-n3nc(C(F)(F)F)cc3C)n2)cc(C(F)(F)F)c1 [Example 885]
Response: 100%

Request: Give its inhibition at 13 µM value. Item: CC(=O)NC1CCN(c2nc(Nc3ccc(F)c(Cl)c3)ncc2-c2cncc(C(=O)O)c2)CC1 [Example 256]
Response: 78.8%

###

assayedTarget: S. pneumoniae Topoisomerase IV ATPase (ParE) (Streptococcus pneumoniae serotype 4)
procedureSummary: S. pneumoniae Topoisomerase IV ATPase inhibition
Type: biochemical
recordedConditions: values marked * are an average of two or more data points, read-out: % Inh (13 μM) of S. pneumoniae Topoisomerase IV ATPase
From the text: S. pneumoniae Topoisomerase IV ATPase Inhibition Activity: Compounds may be tested for inhibition of S. pneumoniae ParE ATPase activity using an ammonium molybdate/malachite green-based phosphate detection assay (Lanzetta, P. A., L. J. Alvarez, P. S. Reinach, and O. A. Candia, 1979, 100: 95-97). […] An IC50 measurement of compound potency for each compound can be determined from reactions performed in the presence of 10 different compound concentrations. […]
Class yes: inhibition at 13 µM at least 80%. Class no: inhibition at 13 µM below 80%.

A selection of reference data follows.
moleculeSmiles: CCOC(=O)c1cncc(-c2cnc(Nc3ccc(F)c(Cl)c3)nc2N2CCOCC2)c1
groupLabel: no

moleculeSmiles: CCOC(=O)c1cc2cc(-c3cnc(Nc4ccc(F)c(Cl)c4)nc3N3CCOCC3)ccc2[nH]1
groupLabel: no

moleculeSmiles: Cc1cc(C(F)(F)F)nn1-c1nc(Nc2ccc(F)c(Cl)c2)ncc1-c1cc(C(=O)O)c(=O)n(C)c1
groupLabel: yes

moleculeSmiles: Cc1cc(C(F)(F)F)nn1-c1nc(Nc2ccc(F)c(Cl)c2)ncc1-c1cnc(OCCN2CCN(C)CC2)c(C(=O)O)c1
groupLabel: yes

moleculeSmiles: COc1cc(Nc2ncc(-c3cnc(OC)c(C(=O)NS(=O)(=O)CCN4C(=O)CCC4=O)c3)c(-n3nc(C(F)(F)F)cc3C)n2)cc(OC)c1
groupLabel: yes

Request: Entry CN(C)CCCNc1nc(Nc2ccc(F)c(F)c2)ncc1-c1cccc(/C=C/C(=O)O)c1 : is its inhibition at 13 µM no less than 80%?
Response: yes

###

assayedTarget: S. pneumoniae Topoisomerase IV ATPase (ParE) (Streptococcus pneumoniae serotype 4, UniProt Q59961)
procedureSummary: S. pneumoniae Topoisomerase IV ATPase inhibition
Type: biochemical
recordedConditions: values marked * are an average of two or more data points, read-out: % Inh (13 μM) of S. pneumoniae Topoisomerase IV ATPase
Text: S. pneumoniae Topoisomerase IV ATPase Inhibition Activity: Compounds may be tested for inhibition of S. pneumoniae ParE ATPase activity using an ammonium molybdate/malachite green-based phosphate detection assay (Lanzetta, P. A., L. J. Alvarez, P. S. Reinach, and O. A. Candia, 1979, 100: 95-97). […] An IC50 measurement of compound potency for each compound can be determined from reactions performed in the presence of 10 different compound concentrations. […]
Entries annotated with measured inhibition at 13 µM
Numbers only here, please. The scale is %.

Solved entries (count: 6):
molecule: COc1cc(Nc2ncc(-c3cnc(N(C)C)c(C(=O)O)c3)c(-n3ccc(C(F)(F)F)n3)n2)cc(OC)c1
inhibition at 13 µM [%]: 100

molecule: CCCNc1nc(Nc2ccc(F)c(Cl)c2)ncc1-c1cncc(C(=O)O)c1
inhibition at 13 µM [%]: 80.9

molecule: COc1cc(Nc2ncc(-c3cc(C(=O)O)c(=O)n(C)c3)c(-n3nc(C(F)(F)F)cc3C)n2)cc(OC)c1
inhibition at 13 µM [%]: 100

molecule: O=C(O)/C=C/c1cccc(-c2cnc(Nc3ccc(F)c(Cl)c3)nc2-n2nc(C(F)F)cc2C(F)F)c1
inhibition at 13 µM [%]: 92

molecule: COCC(COC)Nc1nc(Nc2ccc(F)c(Cl)c2)ncc1-c1cccc(/C=C/C(=O)O)c1
inhibition at 13 µM [%]: 98.7

molecule: CCC1COC(C)CN1c1nc(Nc2ccc(F)c(Cl)c2)ncc1-c1cccc(/C=C/C(=O)O)c1 (stereo not drawn)
inhibition at 13 µM [%]: 85

Request: Give its inhibition at 13 µM value. Item: COCCOc1ncc(-c2cnc(Nc3ccc(F)c(Cl)c3)nc2-n2nc(C(F)(F)F)cc2C)cc1C(=O)O
Response: 99

Request: Give its inhibition at 13 µM value. Item: COc1ncc(-c2cnc(Nc3ccc(F)c(Cl)c3)nc2NCC2CCN(C(=O)C3CC3)CC2)cn1
Response: 78

Request: Give its inhibition at 13 µM value. Item: CCOC(=O)c1cncc(-c2cnc(Nc3ccc(F)c(Cl)c3)nc2N2CCN(CCOC)CC2)c1
Response: 53.3

Request: Give its inhibition at 13 µM value. Item: COc1cc(Nc2ncc(-c3cnc(OCCN4CCOCC4)c(C(=O)O)c3)c(-n3nc(C(F)(F)F)cc3C)n2)cc(OC)c1
Response: 99

Request: Give its inhibition at 13 µM value. Item: CC(=O)N1CCC(Nc2nc(Nc3ccc(F)c(Cl)c3)ncc2-c2cncnc2)CC1
Response: 58.3

Request: Give its inhibition at 13 µM value. Item: COc1ncc(-c2cnc(Nc3cccc(C)c3)nc2-n2ccc(C(F)(F)F)n2)cc1C(=O)O
Response: 100

Request: Give its inhibition at 13 µM value. Item: CN(C)CCCNc1nc(Nc2ccc(F)c(Cl)c2)ncc1-c1ccc(C(=O)N2CCCCC2)s1
Response: 122

Request: Give its inhibition at 13 µM value. Item: Cc1cc(C(F)(F)F)nn1-c1nc(Nc2ccc(F)c(Cl)c2)ncc1-c1cnc(OCCc2ccncc2)c(C(=O)O)c1
Response: 100

Request: Give its inhibition at 13 µM value. Item: COc1cc(Nc2ncc(-c3cnc(OC)c(C(=O)NS(=O)(=O)c4cn(C)nc4C(F)(F)F)c3)c(-n3nc(C(F)(F)F)cc3C)n2)cc(OC)c1
Response: 92
